tested target: Fyn (UniProt P06241)
Sequence (P06241 whole entry, looked up): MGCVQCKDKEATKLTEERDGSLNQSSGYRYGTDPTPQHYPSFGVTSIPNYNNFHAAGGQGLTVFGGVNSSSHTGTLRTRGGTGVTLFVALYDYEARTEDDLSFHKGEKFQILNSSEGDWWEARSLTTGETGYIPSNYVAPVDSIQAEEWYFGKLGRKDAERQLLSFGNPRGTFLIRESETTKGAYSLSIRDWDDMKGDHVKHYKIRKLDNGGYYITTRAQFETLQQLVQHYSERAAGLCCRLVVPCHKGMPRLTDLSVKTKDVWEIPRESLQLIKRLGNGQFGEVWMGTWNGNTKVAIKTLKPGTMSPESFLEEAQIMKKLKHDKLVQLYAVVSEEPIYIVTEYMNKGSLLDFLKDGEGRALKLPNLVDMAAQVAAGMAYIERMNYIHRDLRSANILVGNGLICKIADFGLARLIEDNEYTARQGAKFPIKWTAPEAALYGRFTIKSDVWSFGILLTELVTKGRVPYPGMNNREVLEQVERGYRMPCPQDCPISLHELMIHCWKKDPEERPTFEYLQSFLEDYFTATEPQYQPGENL
procedure summary: phosphorylation enrichment, bacterial display (enrichment ratio); higher = better substrate or ligand; peptides without Tyr show the background
So basically, the class depends on measured phosphorylation enrichment, and the ranges are low range = under 0.5, mid range = from 0.5 up to 0.6, high range = 0.6 and over

{"ordered residues": "IMAFFYMCDRA [CASD1_Y382_YF]", "class assignment": "mid range"}
{"ordered residues": "VIVRMYDFHVL [RPF2_Y109_G106V_YF]", "class assignment": "mid range"}
{"ordered residues": "RHTRSYDFTEG [FGF7_Y56_M59T_YF]", "class assignment": "low range"}
{"ordered residues": "QLHEHYKIHKE [NSMAF_Y626]", "class assignment": "high range"}
{"ordered residues": "PPPPAYDDVAQ [TNK2_Y635]", "class assignment": "low range"}
{"ordered residues": "KKIMGYSIRTI [IDS_Y490_I485K]", "class assignment": "low range"}
{"ordered residues": "FMCKVYSDPQP [FGFR1_Y280]", "class assignment": "mid range"}
{"ordered residues": "ENAGFYFQVSA", "class assignment": "low range"}

Incoming: Category lookup for the sequence LFNQDYPIHCV [GATM_Y227_S231C_YF]
Outgoing: high range

Incoming: Category lookup for the sequence GRVLGYGAFGK [FLT4_Y853]
Outgoing: low range

Incoming: Category lookup for the sequence FHLGKYLQEVL [KLB_Y910_Y906H_YF]
Outgoing: low range

Incoming: Category lookup for the sequence PIAPVYAPSMV [ACAT1_Y331_A333P]
Outgoing: high range

Incoming: Category lookup for the sequence RDLTDYLMKIL [ACTA1_Y190]
Outgoing: mid range

Incoming: Category lookup for the sequence RPIEVYLCPEE [E2F3_Y349_G344R]
Outgoing: high range

Incoming: Category lookup for the sequence YQLENCCNGGG [INS_Y108_Y108C]
Outgoing: high range

Incoming: Category lookup for the sequence LLVVLCKFRCF [PSEN1_Y154_Y154C_YF]
Outgoing: high range

Incoming: Category lookup for the sequence KLVDVYVNDAF [PGK1_Y161_G158V]
Outgoing: mid range

Incoming: Category lookup for the sequence IGDENYGEGSS [ACO2_Y665]
Outgoing: mid range

----------
tested target: SHP2-C SH2
procedure summary: SH2 binding enrichment of the phosphorylated peptide, bacterial display (enrichment ratio); higher = better substrate or ligand; peptides without Tyr show the background
SH2 binding enrichment values, listed per item
// print number alone

{"ordered residues": "DLDLTYIFPNI [PTEN_Y27_YF]", "measure name": "SH2 binding enrichment", "experimental value": 0.547}
{"ordered residues": "RWGQKHMTAVV [CYBA_Y72_Y72H]", "measure name": "SH2 binding enrichment", "experimental value": 1.66}
{"ordered residues": "FETNVYVDKNL [PTCHD3_Y688_K685T]", "measure name": "SH2 binding enrichment", "experimental value": 0.656}
{"ordered residues": "FMYKVYSDPQP [FGFR1_Y280_C277Y]", "measure name": "SH2 binding enrichment", "experimental value": 0.854}

Incoming: What does the record list as SH2 binding enrichment for FSQQTYYPVSN [ABCD1_Y180_R182P] ?
Outgoing: 0.818

Incoming: What does the record list as SH2 binding enrichment for VTQEQYELYCE [CBL_Y368] ?
Outgoing: 0.577

Incoming: What does the record list as SH2 binding enrichment for SLALFYRNVFH [RBL1_Y792_K794N_YF] ?
Outgoing: 0.873

----------
phosphorylation enrichment values, listed per item
tested target: MERTK (UniProt Q12866)
Sequence (Q12866 whole entry, looked up): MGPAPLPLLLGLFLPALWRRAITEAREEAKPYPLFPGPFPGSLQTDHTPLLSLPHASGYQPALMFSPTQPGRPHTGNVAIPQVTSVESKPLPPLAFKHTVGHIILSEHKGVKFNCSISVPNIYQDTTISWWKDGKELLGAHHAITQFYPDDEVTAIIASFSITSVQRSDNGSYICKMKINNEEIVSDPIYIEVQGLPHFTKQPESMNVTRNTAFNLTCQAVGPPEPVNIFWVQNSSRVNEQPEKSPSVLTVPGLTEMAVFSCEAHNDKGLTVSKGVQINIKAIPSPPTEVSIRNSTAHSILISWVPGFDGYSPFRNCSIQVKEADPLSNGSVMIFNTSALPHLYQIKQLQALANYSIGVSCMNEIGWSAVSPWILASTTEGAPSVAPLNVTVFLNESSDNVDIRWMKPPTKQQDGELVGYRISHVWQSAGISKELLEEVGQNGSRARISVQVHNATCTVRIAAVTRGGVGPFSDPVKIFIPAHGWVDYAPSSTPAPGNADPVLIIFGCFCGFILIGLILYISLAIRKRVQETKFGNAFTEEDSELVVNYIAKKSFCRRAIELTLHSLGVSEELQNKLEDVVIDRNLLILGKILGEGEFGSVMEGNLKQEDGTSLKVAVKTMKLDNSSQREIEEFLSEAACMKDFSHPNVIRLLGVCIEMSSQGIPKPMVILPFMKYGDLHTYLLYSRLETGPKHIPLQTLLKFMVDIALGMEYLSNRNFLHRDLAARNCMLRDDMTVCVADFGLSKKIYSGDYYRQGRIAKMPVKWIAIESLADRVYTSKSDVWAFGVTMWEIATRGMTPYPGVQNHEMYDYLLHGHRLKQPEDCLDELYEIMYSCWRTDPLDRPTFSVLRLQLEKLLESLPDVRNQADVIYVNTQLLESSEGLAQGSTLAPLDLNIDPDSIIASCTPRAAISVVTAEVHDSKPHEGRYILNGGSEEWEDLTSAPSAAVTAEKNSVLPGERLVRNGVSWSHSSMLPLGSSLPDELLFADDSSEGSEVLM
procedure summary: phosphorylation enrichment, bacterial display (enrichment ratio); higher = better substrate or ligand; peptides without Tyr show the background
// print number alone

Take a look at these entries with their results.
{"ordered residues": "AVARPYHIQKW [ACSBG1_Y677_A673V]", "phosphorylation enrichment": 0.362}
{"ordered residues": "NKVKFYIPDMN [NCR1_Y84]", "phosphorylation enrichment": 0.388}
{"ordered residues": "PGQAAYQKVVA [HBB_Y131_V127G]", "phosphorylation enrichment": 0.514}

Incoming: What does the record list as phosphorylation enrichment for HESEIYCKVCY [CSRP3_Y57] ?
Outgoing: 2.65

Incoming: What does the record list as phosphorylation enrichment for RKPDIYERLAS [MCM4_Y459] ?
Outgoing: 1.65

Incoming: What does the record list as phosphorylation enrichment for EKSREYDRLFE [PIK3R1_Y463_YF] ?
Outgoing: 0.453

Incoming: What does the record list as phosphorylation enrichment for PIAPVYAPSMV [ACAT1_Y331_A333P] ?
Outgoing: 4.7

----------
Test system: Fer (mouse)
procedure summary: phosphorylation enrichment, bacterial display (enrichment ratio); higher = better substrate or ligand; peptides without Tyr show the background
Threshold check on phosphorylation enrichment: at or above 0.5 gives YES, strictly below gives NO.

Use the examples below as a reference point.
{"ordered residues": "CTTIHNNFMCN [TP53_Y234_Y234N_YF]", "class assignment": "YES"}
{"ordered residues": "SYSGEYGSGGG [ZG16_Y30_G32S]", "class assignment": "NO"}
{"ordered residues": "DGFTDYAEFAK [MCFD2_Y138_I136T_YF]", "class assignment": "NO"}
{"ordered residues": "TACNPYKPPGP", "class assignment": "NO"}
{"ordered residues": "MYQVQYNSSVD [LRFN1_Y458]", "class assignment": "YES"}

Shifting focus to the sequence that follows.
Incoming: Evaluate RSSKMYPKTRS [LPL_Y329_L330P] : phosphorylation enrichment at minimum 0.5?
Outgoing: NO

----------
tested target: SHP2-C SH2;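 further: peptide library displayed on the E. coli surface as eCPX fusions, selected cells deep-sequenced, score is each peptide's frequency after selection divided by its frequency in the input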
procedure summary: SH2 binding enrichment of the phosphorylated peptide, bacterial display (enrichment ratio); higher = better substrate or ligand; peptides without Tyr show the background
Threshold check on SH2 binding enrichment: at or above 0.8 gives 1, strictly below gives -1.

Use the examples below as a reference point.
{"ordered residues": "NMSRIYSTAKV [ACE_Y151]", "class assignment": 1}
{"ordered residues": "RYLKDYGEFEV [GINS1_Y156_C152Y]", "class assignment": 1}
{"ordered residues": "HLMLQYDAVVN [SLC25A32_Y152_R147H]", "class assignment": -1}
{"ordered residues": "IPTPAYQSSPA [PDCD6IP_Y727]", "class assignment": -1}
{"ordered residues": "LKTNWYNNGKD [DNMT3B_Y404_C403W]", "class assignment": 1}

Incoming: Evaluate DVLEFYNSKKT [PAK1_Y131] : SH2 binding enrichment at minimum 0.8?
Outgoing: -1

Incoming: Evaluate MEIHAYHKLLE [LMNA_Y376_R377H] : SH2 binding enrichment at minimum 0.8?
Outgoing: -1

Incoming: Evaluate QEKKGYFEDRR [GLUL_Y336] : SH2 binding enrichment at minimum 0.8?
Outgoing: -1

Incoming: Evaluate PRQRRYVYYYS [PTEN_Y174_S170R] : SH2 binding enrichment at minimum 0.8?
Outgoing: 1

Incoming: Evaluate GVIKEYQIRQV [USH2A_Y3623] : SH2 binding enrichment at minimum 0.8?
Outgoing: -1

Incoming: Evaluate DTLMEYLENPK [CYCS_Y68] : SH2 binding enrichment at minimum 0.8?
Outgoing: 1

Incoming: Evaluate RGEAVYSRDCV [XPC_Y676] : SH2 binding enrichment at minimum 0.8?
Outgoing: -1

Incoming: Evaluate WGTAEYDSVVA [MAP1A_Y1883] : SH2 binding enrichment at minimum 0.8?
Outgoing: -1

Incoming: Evaluate QCTSAHPLQPE [NANS_Y188_Y188H] : SH2 binding enrichment at minimum 0.8?
Outgoing: -1

Incoming: Evaluate NNTFLYQLVFD [EXO1_Y284] : SH2 binding enrichment at minimum 0.8?
Outgoing: 1

----------
phosphorylation enrichment values, listed per item
Tested on: AncSZ
procedure summary: phosphorylation enrichment, bacterial display (enrichment ratio); higher = better substrate or ligand; peptides without Tyr show the background

{"ordered residues": "NDTAGYFIIGG [SEL1L3_Y399]", "tested target": "AncSZ", "phosphorylation enrichment": 1.15}
{"ordered residues": "QMVGMYASSFM [AVPR2_Y124_YF]", "tested target": "AncSZ", "phosphorylation enrichment": 0.981}
{"ordered residues": "DMGAQYAAASR [ARID1B_Y483_P488R]", "tested target": "AncSZ", "phosphorylation enrichment": 0.575}
{"ordered residues": "KIKGRYEKCEP [KRT26_Y119_W118R]", "tested target": "AncSZ", "phosphorylation enrichment": 0.808}
{"ordered residues": "IVKAFYVHARA [AIPL1_Y268_R270H_YF]", "tested target": "AncSZ", "phosphorylation enrichment": 1.04}

Incoming: What does the record list as phosphorylation enrichment for EQKRYYNAMKK [SCN5A_Y1495_K1493R] ?
Outgoing: 0.586

Incoming: What does the record list as phosphorylation enrichment for WEPFGFAVTRC [PTPRT_Y412_Y412F] ?
Outgoing: 1.18

Incoming: What does the record list as phosphorylation enrichment for GIVEEYQLPFF [BMPR1A_Y453_YF] ?
Outgoing: 3.31

Incoming: What does the record list as phosphorylation enrichment for SVTCTYSPGLN [TP53_Y126_A129G] ?
Outgoing: 1.42
